tested on: NCI-H460 lung; assay: NCI-60 one-dose screen, 48 h (100 = growth as untreated, 0 = no growth, -100 = all killed); conditions: 10 µM unless noted
Compounds without any hit were thinned out: in the full panel of roughly 83,000, 20% have a hit.
# maps each entry to its growth
I only need the number, in %, no unit after it.

Compound	Reported measurement
COc1cc2ncnc(Nc3ccc(S(=O)(=O)Nc4cc(C)on4)cc3)c2cc1OCCCN1CCN(c2ccc([N+](=O)[O-])cc2)CC1	110
CCC(=O)OCc1ccc(OC)cc1	111
O=C(CCl)N1c2ccccc2Oc2ccc3ccccc3c21	2.15
COc1ccc(C2c3cccn3-c3ccccc3N2C(C)=O)cc1 (centres undefined)	97.4
COc1ccc2nc3cc(Cl)ccc3c(NC(=O)CSc3ccc(Cl)cc3)c2c1	-84.4
Nc1cc(C(=O)O)cc(C(=O)O)c1	112
CCN(CC)C(=O)O/N=C(/C)c1ccccc1	110
Nc1c(Br)cc2c(c1Br)Cc1cc(Cl)ccc1-2	99.7
CN1C(=O)N(C)C2C1NN=c1s/c(=C\c3ccc(C(F)(F)F)cc3)c(=O)n12 (centres undefined)	11.7
O=C(O)C(CCc1ccccc1)NCc1ccccc1 (centres undefined)	116

Supply recorded growth for `COc1ccc(CNc2c3ccccc3nc3ccccc23)cc1F` here.
6.34

Look up growth of `O=c1oc2ccccc2cc1-c1cc(-c2ccc(-c3cc(-c4cc5ccccc5oc4=O)nc(-c4cc5ccccc5oc4=O)c3)cc2)cc(-c2cc3ccccc3oc2=O)n1` and report it.
106

Please give measured growth of the following entry: `O=S1(=O)NCCCN1CCNc1nccc(-c2c(-c3cccc(O)c3)nc3sccn23)n1`
67.1

For the compound `Clc1ccc(-c2cnc3nonc3n2)s1` , give its reported growth.
92.6
